Test system: southern armyworm (Spodopetra eridania Cramer)
Assay: Mite/insect screen, SAW
Assay type: in vivo
Settings: Spodoptera eridania, foliar, percent mortality; rate 400 ppm, foliar spray on squash; read-out: SAW RESULTS %
observed property: mortality at 400 ppm (%)
Give bare numbers, in %.

>>> obs_value("CC(C)c1ccc(CCCc2ccnc3c(F)cccc23)cc1")
100
>>> obs_value("CC(C)c1ccccc1CCOc1ccnc2c(F)cccc12")
0
>>> obs_value("Cc1ccccc1CCOc1ccnc2c(F)cccc12")
0
>>> obs_value("Fc1cccc2c(OCCc3cccc(Oc4ccccc4)c3)ccnc12")
80
>>> obs_value("Fc1cccc2c(NCCc3ccc(Cl)cc3)cc(NCCc3ccc(Cl)cc3)nc12")
0
>>> obs_value("Cc1cc(OCCC2CCCCC2)c2cc(F)ccc2n1")
0
>>> obs_value("Clc1ccc(CCOc2ccnc3cc(Cl)ccc23)cc1")
0
>>> obs_value("CC(CCOc1ccnc2c(F)cccc12)CC(C)(C)C (centres unmarked)")
0
>>> obs_value("CC(=O)N(CCc1ccc(Cl)cc1)c1cc(N(CCc2ccc(Cl)cc2)C(C)=O)c2ccccc2n1")
0
>>> obs_value("CC(C)c1ccc(CCOc2ccnc3c(F)cccc23)cc1")
100

I have 5 compounds here; please give me mortality at 400 ppm for each one.
1. Cc1ccc(CCOc2ccnc3cc(Cl)ccc23)cc1
2. Cc1ccc(CCOc2ccnc3cc(F)ccc23)cc1
3. Fc1ccc(CCOc2ccnc3c(F)cccc23)c(F)c1
4. Clc1ccc(CCOc2ccnc3c(Br)cccc23)cc1
5. Fc1cccc2c(OCCCCOc3ccccc3)ccnc12

1: 100; 2: 0; 3: 0; 4: 0; 5: 0

Give one value of mortality at 400 ppm per listed compound.
1. C1=C(CCNc2ccc3nccc(NCCC4=CCCCC4)c3c2)CCCC1
2. Fc1cccc2c(OCCCCCCOc3ccccc3)ccnc12
3. Fc1ccc2nccc(NCCC3=CCCCC3)c2c1
4. Clc1ccc(CCCOc2ccnc3c(Cl)cccc23)cc1
5. CC(C)(C)c1ccc(CCOc2ccnc3cc(Cl)ccc23)cc1

0
0
0
0
0

====

Test system: Twospotted spider mites (Tetranychus urticae Koch)
Assay: Mite/insect screen, SM
Format: in vivo
Conditions: Tetranychus urticae, foliar, percent mortality; rate 200 ppm, foliar spray on squash; read-out: SM RESULTS %
observed property: mortality at 200 ppm (%)
One number for each entry, in %.

Examples from the recorded data:
>>> obs_value("Clc1ccc2c(OCCc3ccc(-c4ccccc4)cc3)ccnc2c1")
100
>>> obs_value("Clc1ccc2c(NCCc3ccc4ccccc4c3)ccnc2c1")
0
>>> obs_value("Clc1ccc(CCCOc2ccnc3c(Cl)cccc23)cc1")
0
>>> obs_value("Clc1ccc(CCNc2ccc3c(NCCc4ccc(Cl)cc4)ccnc3c2)cc1")
0
>>> obs_value("Clc1ccc2c(OCCc3ccccc3)ccnc2c1")
0
>>> obs_value("Fc1ccc2c(OCCc3ccc(Cl)cc3)ccnc2c1")
50

I would be grateful if you could provide mortality at 200 ppm for each of the following entries.
1. Clc1cccc2c(NCCc3cccc(Oc4ccccc4)c3)ccnc12
2. Cc1cc(OCCc2ccc(C(C)(C)C)cc2)c2cc(Cl)ccc2n1

1. 0
2. 0

Quick request: mortality at 200 ppm for each listed item, please.
1. c1ccc(CCNc2ccnc3c(NCCc4ccccc4)cccc23)cc1
2. Fc1ccc2c(OCCc3ccc(-c4ccccc4)cc3)ccnc2c1
3. Fc1ccc(CCOc2ccnc3cc(Cl)ccc23)cc1

1: 0; 2: 100; 3: 0

Need mortality at 200 ppm for each of these compounds.
1. Clc1ccc(CCNc2ccc3nccc(NCCc4ccc(Cl)cc4)c3c2)cc1
2. COc1ccc2nc(C)cc(NCCc3cccc(Oc4ccccc4)c3)c2c1
3. Fc1ccc2c(OCCOc3ccc(Br)cc3)ccnc2c1
4. Fc1cccc2c(NCCc3ccccc3)cc(NCCc3ccccc3)nc12
5. Fc1cccc2c(OCCc3ccccc3-c3ccccc3)ccnc12

[0, 80, 0, 0, 0]
